- Test system: K4 kissing-loop RNA reporter
- experiment: apparent KD of K4 kissing-loop reporter; higher = weaker reporter binding
- condition_notes: Eterna round: R107; input ligand: theophylline 20 uM
The following sequences are listed with their measured apparent KD of K4 kissing-loop reporter values.
observed_property: apparent KD of K4 kissing-loop reporter (nM)

>  <primary_sequence>
GUACGCUCUCGAGUGAUGUUCGGUAAUAGAGAGGAUAUCGCUUUUGCGAGAAGGCUCUGAAUGAGGAAACUCGUUCUGAGUGUAC [FMN A 19]

>  <test_system>
K4 kissing-loop RNA reporter

>  <measured_value>
358

$$$$
>  <primary_sequence>
GAAUUAAUGUCUUUAAUAUAAUAAUCAGAUACCAGUGAUUUGUGACACCCUUGGCAGCUGUAUAGAGUGAUGUUCUUAUACAUAA [#12 K4 Theophylline A Exclusion]

>  <test_system>
K4 kissing-loop RNA reporter

>  <measured_value>
509

$$$$
>  <primary_sequence>
UGAUCUCGGCAGUGAUGUUGCAUAUGAGAAGGAGCGCACGAAAGUGCAGGUAGGUCGCUCAGCCACGACGAAAGUCGCGAGAUCU [#SwitchBubble 3 #K4Early]

>  <test_system>
K4 kissing-loop RNA reporter

>  <measured_value>
238

$$$$

* * *

- Tested on: MS2 coat protein
- experiment: apparent KD of MS2 coat protein; designed switch direction (-1 OFF switch, 1 ON switch): 1; higher = weaker reporter binding
- condition_notes: input ligand: FMN 200 uM
The following sequences are listed with their measured apparent KD of MS2 coat protein values.
observed_property: apparent KD of MS2 coat protein (µM)

>  <primary_sequence>
GUCGGUCUGUCGUGCUGAGGUGAUAGUUAACAUGAGGAUCACCCAUGUUGCUGUCGGGUCGUUGGGAGUUUUCUUCG [Modxample 118 - Jieux - Sensor for bsa-mir-208a] (Eterna round: R96, puzzle: Sensor for hsa-mir-208a)

>  <observed_property>
apparent KD of MS2 coat protein

>  <units_symbol>
µM

>  <measured_value>
0.0191

$$$$
>  <primary_sequence>
ACUCGGCAGAUAGGAUAUCCUGCAUGGAUAGUAGGAGAAGGAUCGUGCGCACAUGAGGAUCACCCAUGUGCCAAAUAAUAACAA [Reatedor] (Eterna round: R96, puzzle: Same State NG 1)

>  <observed_property>
apparent KD of MS2 coat protein

>  <units_symbol>
µM

>  <measured_value>
0.011

$$$$

* * *

- Test system: K4 kissing-loop RNA reporter;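 note: bound reporter read as fluorescence of individual clusters on recovered sequencing chips by microscopy, with normalized cluster intensities fitted with a binding model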
- experiment: apparent KD of K4 kissing-loop reporter; higher = weaker reporter binding
- condition_notes: Eterna round: R107; input ligand: theophylline 20 uM
Tick rule met if apparent KD of K4 kissing-loop reporter is 300 nM or greater. Tick rule not met if apparent KD of K4 kissing-loop reporter is less than 300 nM.

>  <primary_sequence>
AAAGAUCUUCUAGAAACUAGAAGAUCAAGAGAGGAUAUCCGAAUUCGGAGAAGGCUCACUAAGUGAUGUUUGGACCCAAAGGGAA [AK3 SS FMN A]

>  <category_label>
rule met

$$$$
>  <primary_sequence>
GACACACUUUCAGGUGUCCAGUGACUGGAUACCAGCAUGGAAACAUGCCCUUGGCAGCCAGAACUGGAAGUGAUGUUUCCAGUAA [Theo A Mod Design7 (Brourd)]

>  <category_label>
rule not met

$$$$
>  <primary_sequence>
UGCACCAGUGAUGUUGGUCGGCACCGAGAUACCAGCUGAUCUCUUAGCCCUUGGCAGCUCUUUAUUCGCGUUAUCAGUUUCUUCG [theeternabot_sameState_KL_Theo_A_16]

>  <category_label>
rule met

$$$$
>  <primary_sequence>
AAAUAUUCGAGUGAUGUUCGAUAAAUUUCAGAGGAUAUGCUUAAAAGCAGAAGGCUGUAUUUCUAUUUGUUAUUAAAUUUUAUAA [JR_ExcFMNA_Sub002]

>  <category_label>
rule not met

$$$$
>  <primary_sequence>
UACAUUUUAUUAACACUAAAUACAACUGAAGGAGCGACAAUAAAGUCAGGUAGGUCGCAGAAUAAAUGAGUGAUGUUCAUUAUUG [JR_ExcArginiA_Sub016]

>  <category_label>
rule not met

$$$$
>  <primary_sequence>
GGGCCUGGGCCCGUAAGGGCCUGGGCCCGUUAGGAUAUGACGUGAUUCAGAAGGGAUGGGUGGAGUGAUGUUCCACCCGAGAGGG [#2 Same State - FMN A Attempt #24 (HarryS)]

>  <category_label>
rule not met

$$$$
>  <primary_sequence>
CUUGGAAGGACGGCCGCCACUCGACAGUGAUGUUGUCCGAGUGGGUAGCGCAGUGAUGUUGUGUCGAGGACCGGGUCCUAGGAAU [Exclusion Tryptophan B GF 27]

>  <category_label>
rule not met

$$$$
>  <primary_sequence>
GCGGGCCAGACGGCCGCCACUCCGGGCAGUGAUGUUGCGAAUCUUCUACUAGAGUGAUGUUCUACGAGGACCGGGUCGGAACGCG [Exclusion Tryptophan B Gf 14]

>  <category_label>
rule met

$$$$
>  <primary_sequence>
AAAAUUAACAAGAGUGAUGUUCUUGUUAGACAGGAUAUCGGUUUAACGAGAAGGGUCGUGGCUCCAUUGGGCCCAGUGGUUCACC [Mazareri]

>  <category_label>
rule met

$$$$
>  <primary_sequence>
AGUGAACGAGCGGCCGCCACUAAAUGAGUGAUGUUCGUGAGUAGUGCUGUUGUCAUGAUUGUUUUUAGGACCGGGUUCGAUGUUG [popplmullin]

>  <category_label>
rule met

$$$$
>  <primary_sequence>
ACGCGCGCGAGUGAUGUUCGGAGCGGCUGGCAGGAUAUGCCGCAAGGCAGAAGGGUCGUGGCGCGUCCAGGGUAACCUGGACGCG [#2 Exclusion - FMN A Attempt #28 (HarryS)]

>  <category_label>
rule met

$$$$

* * *

The following sequences are listed with their measured apparent KD of MS2 coat protein values.
- System: MS2 coat protein
- experiment: apparent KD of MS2 coat protein; designed switch direction (-1 OFF switch, 1 ON switch): -1; higher = weaker reporter binding
- condition_notes: input ligand: none

>  <primary_sequence>
CCACGGUGAGGAUAUCAAAGAUUGCGCUCGGAAGGUCAAUUUGAGAAGGCACAUGAGGAUCACCCAUGUUAGCG [Eternabot (L2) Solution 40] (Eterna round: R97, puzzle: Exclusion 4)

>  <apparent KD of MS2 coat protein [nM]>
34.6

$$$$
>  <primary_sequence>
ACUUACUGAGGAUAUACAUAGAUUUACAUGAGGAUCACCCAUGUUCCUCUAAGUAUAUAUGUAGAAGGCAGAAGAG [Mat - Exclusion 5 - JL Mod - D40] (Eterna round: R97, puzzle: Exclusion 5)

>  <apparent KD of MS2 coat protein [nM]>
145

$$$$
>  <primary_sequence>
CUGCUCCGUGUAGGAUAUGCAUACCACCACUAUGCAGAAGGACAUGAGGAUCACCCAUGUAUGUUAUUAUCACGUGUAGCGUCC [Design 18] (Eterna round: R96, puzzle: Exclusion NG 1)

>  <apparent KD of MS2 coat protein [nM]>
20.6

$$$$
>  <primary_sequence>
CUGAGCUGAGGAUAUACAUGAGGAUCACCCAUGUAAAGCAGCUUGCGUACAGGCAGAUGUAGAAGGCAGUUCGG [Mod of JL 16 - Jieux - Exclusion 3] (Eterna round: R97, puzzle: Exclusion 3)

>  <apparent KD of MS2 coat protein [nM]>
18.1

$$$$
>  <primary_sequence>
AGCCAAGCAGGAUAUAUCCGGGAUAACAUGAGGAUCACCCAUGUGACCGCUUGAUAUCCUAUAGAAGGGCUUGGGA [Mod of ViennaUCT 24 - Jieux - Exclusion 5] (Eterna round: R97, puzzle: Exclusion 5)

>  <apparent KD of MS2 coat protein [nM]>
24.9

$$$$
>  <primary_sequence>
AUUGUAUGAUACCUCUAAUACAUGAGGAUCACCCAUGUUAUCGAGGAUAUGCAGAAUAGAUUAGAGCAGAAGGCGAAGUAAUAU [JR_ExcNG3_Sub025] (Eterna round: R96, puzzle: Exclusion NG 3)

>  <apparent KD of MS2 coat protein [nM]>
13.6

$$$$
>  <primary_sequence>
GCACGGAGUGUAGGAUAUCUGUGCGAUUAGCUCAGAGAAGGACACAUGAGGAUCACCCAUGUGUACCUCAACACUAAUCCGUGC [Eli exng1 - 076] (Eterna round: R96, puzzle: Exclusion NG 1)

>  <apparent KD of MS2 coat protein [nM]>
10.1

$$$$
>  <primary_sequence>
CGACGACAUGAGGAUCACCCAUGUCAGGAUAUGGAAAACCAGAAUAUAUUUUAACUUUCCAGAAGGGACAGGUC [Eternabot (Original) Solution 1] (Eterna round: R97, puzzle: Exclusion 1)

>  <apparent KD of MS2 coat protein [nM]>
18.1

$$$$
>  <primary_sequence>
CAACCUCACAACCGUUAAAACAUGAGGAUCACCCAUGUGCCAUAACGGCGCAUGAUCGAGCUAGGCCCGUCCAUGCA [Razaxe] (Eterna round: R96, puzzle: Sensor v2, turn-off variant)

>  <apparent KD of MS2 coat protein [nM]>
26.1

$$$$
>  <primary_sequence>
GGGCCCGGAGGAUAUACAAUGGGCCCGGGAAAUUGGGCCCUACAUGAGGAUCACCCAUGUAGAAGGCCGGGCCC [-40.2, -38.1 kcal A 24%, 5c,0] (Eterna round: R97, puzzle: Exclusion 2)

>  <apparent KD of MS2 coat protein [nM]>
12.5

$$$$
>  <primary_sequence>
GUUGUCCUUGUAAGGAUAUCCGGAUAGAGCAUAUCGGAGAAGGUACAUGAGGAUCACCCAUGUCUCACCGUGCU [Eternabot (L1) Solution 95] (Eterna round: R97, puzzle: Brourd's mod of Exclusion 4)

>  <apparent KD of MS2 coat protein [nM]>
14.3

$$$$
>  <primary_sequence>
AGUCGUAGACAGGAUAUGCGGCUAAUAAAUAAAGCAGAAGGGUCUACUUGAGGAUCACCCAAGUGGGCGGUCAA [jl-ex6-4.21 ViennaUCT mod] (Eterna round: R97, puzzle: Exclusion 6)

>  <apparent KD of MS2 coat protein [nM]>
51.8

$$$$
>  <primary_sequence>
AGGUAGUCAGGAUAUUAAGAGUAGCGGGAUAACGCUACGAGUGAGAAGGGACAUGAGGAUCACCCAUGUUUAUU [JR_Ex4_Sub070] (Eterna round: R97, puzzle: Exclusion 4)

>  <apparent KD of MS2 coat protein [nM]>
24.8

$$$$
>  <primary_sequence>
CAGUACUGAGGAUAUACAUGAGGAUCACCCAUGUGUCUUCUCCUAGGAAACUAGGUAUGUAGAAGGCAGUACUG [Omei Ex3 Mod of Eli 4.27 v1] (Eterna round: R97, puzzle: Exclusion 3)

>  <apparent KD of MS2 coat protein [nM]>
40

$$$$
>  <primary_sequence>
UGAGCUACAGGAUAUAUGUGGCGACCGUGAGGUCGAAGGUUACAUGAGGAUCACCCAUGUAGAAGGGUAGUUCU [Mat - Exclusion 2 - JL Mod - D20] (Eterna round: R97, puzzle: Exclusion 2)

>  <apparent KD of MS2 coat protein [nM]>
284

$$$$
>  <primary_sequence>
GCCGUAAGUGUGAGGAUAUACCUAUGGAUACAUAGGUAGAAGGCACAUGAGGAUCACCCAUGUUCUCAAUCGGC [Eli BMX r4m5] (Eterna round: R97, puzzle: Brourd's mod of Exclusion 4)

>  <apparent KD of MS2 coat protein [nM]>
125

$$$$
>  <primary_sequence>
GUACUACGAGGAUAUAUAUAAUGGGAAGCCCAGGCCAUUGCACAUGAGGAUCACCCAUGUAGAAGGCGUGGUCA [Eternabot (L2) Solution 28] (Eterna round: R97, puzzle: Exclusion 2)

>  <apparent KD of MS2 coat protein [nM]>
16.7

$$$$
>  <primary_sequence>
AGAUCUAUCACGAAAGUGAUAGAUCAAAUUAGUUUUUAAACAUGAGGAUCACCCAUGUCCUAGUGGGCUAGUCUUAU [Mat - Sensor v2 - var 2 - Mod - D135] (Eterna round: R96, puzzle: Sensor v2, turn-off variant 2)

>  <apparent KD of MS2 coat protein [nM]>
239

$$$$

Origin of the recorded values: the supplement of paper PMC9170038
